# tested.on: T1, CRBN, Q96SW2
# T1 chain: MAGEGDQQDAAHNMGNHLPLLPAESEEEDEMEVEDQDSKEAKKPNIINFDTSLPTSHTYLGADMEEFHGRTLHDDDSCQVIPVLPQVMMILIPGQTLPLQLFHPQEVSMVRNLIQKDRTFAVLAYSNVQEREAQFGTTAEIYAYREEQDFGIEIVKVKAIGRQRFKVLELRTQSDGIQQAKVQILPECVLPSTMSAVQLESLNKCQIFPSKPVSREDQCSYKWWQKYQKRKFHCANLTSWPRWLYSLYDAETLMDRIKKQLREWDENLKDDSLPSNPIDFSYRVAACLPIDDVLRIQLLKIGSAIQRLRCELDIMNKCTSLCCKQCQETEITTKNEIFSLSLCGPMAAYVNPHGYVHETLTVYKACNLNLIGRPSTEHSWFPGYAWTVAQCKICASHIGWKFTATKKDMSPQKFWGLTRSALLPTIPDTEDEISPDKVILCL
# assay.details: log2 fold change of degron read counts, EGFP-low vs EGFP+ sorted cells (limma voom), compound-induced degradation; higher = more compound-induced degradation of the degron-EGFP fusion; degrons are variants of IKZF1/3 zinc finger 2; compound dose not given here;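 further: pooled lentiviral library of zinc finger degron-EGFP fusions in mCherry-positive Jurkat cells, FACS-sorted after compound exposure, with degron abundance counted by next-generation sequencing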
# experimental.setup: Jurkat; 18 h; compound: compound 22 (5-morpholino-thalidomide)
In all, about 8,300 sequences were measured (“log2 fold change of degron read counts, EGFP-low vs EGFP+ sorted cells (limma voom), compound-induced degradation”: median about -1.1, highest 2% from about 3.2 on). The sample as a whole holds a higher share of the highest values than the screen did.
quantity.kind: log2 fold change of degron read counts

| item.sequence | reported |
| --- | --- |
| LRCPICGFPCTQKGNLLRHIKL [46L_47R_49P_50I_52G_53F_54P_55C_67L_, Q9UKT9] | 3.54 |
| LFCPICGFRCTQKGNLLRHIKL [46L_47F_49P_50I_52G_53F_54R_55C_67L_, Q9UKT9] | 3.2 |
| LACPICGFRCTQKGNLLRHIKL [46L_47A_49P_50I_52G_53F_54R_55C_67L_, Q9UKT9] | 2.7 |
| FWCPICGAFFTQKGNLLRHIKL [46F_47W_49P_50I_52G_53A_54F_55F_67L_, Q9UKT9] | 3 |
| FGCPICGHQFTQKGNLLRHIKL [46F_47G_49P_50I_52G_53H_54Q_55F_67L_, Q9UKT9] | -2.85 |
| LRCNQCGFGCTQKGNLLRHIKL [46L_47R_49N_50Q_52G_53F_54G_55C_67L_, Q9UKT9] | -1.8 |
| LVCPICGFECTQKGNLLRHIKL [46L_47V_49P_50I_52G_53F_54E_55C_67L_, Q9UKT9] | 2.29 |
